Test Target: F protein of human metapneumovirus strain JPS03-178 (type A2), on infectious virus (human metapneumovirus, strain JPS03-178 …)
Experiment Notes: cell-based or functional assay
Quantity Kind: IC60, neutralizing activity (hMPV infection of LLC-MK2 cells; GraphPad Prism 6) (µg/mL)

Binder: EV046150 (antibody, human IgG1, kappa, V domains shown) VH: RVQLVQSGAEVKKPGSSVRVSCKASGGTFSNYSISWVRQVPGQGLEWMGRIIPILPLSSYPQQFQGRVAITADKSSTTAYMELSSLRIEDTAIYYCARDALRPEGGYYYYYFDVWGTGTTVTVSS VL: EIELTQSPGTLSLSPGERATLSCRANQIIGDTSLAWYQQKPGQAPRLLIFGASSRATGIPDRFSGSGFGSDFTLTITSLEPEDFAVYYCQQYGSSPTFGQGTKVEIKR
Unit Name: µg/mL
Value Measured: 0.0373

Binder: EV046124 (antibody, human IgG1, lambda, V domains shown) VH: QVQLVQSGTELKKPGASVKVSCKASGYTFTDYSMHWLRQAPGESLEWMGWVNGGPLDTKYSPTFQDRVSFSRDVFATTAYMDLSSLGPEDTAVYYCARGWGITAYRGDAFDLWGQGTMVIVSS VL: SFVLTQPPSVSVAPGKSARITCGASNIESKSVHWYQQKPGQAPVVVVYDDDDRPSGIPERFSGSNSGNTATLIINRVEVGDEADYYCQVWDSTSDMYVFGAGTKVTVLG
Unit Name: µg/mL
Value Measured: 0.0539

Binder: EV046113 (antibody, human IgG1, kappa, V domains shown) VH: QVQLVESGGGLVRPGGSLRLSCAASGFTFSDYFMTWIRQAPGKGLEWVSYINSIGSVIFYADSVEGRFTVSRDNTMKSLFLQMNSLTAEDTAVYYCARSCRISYGASGGFSCGMDVWGQGTPVTVSS VL: DIQMTQSPSSLSASVGDRVTITCQASQSIRENINWYQQKTGKAPKLLIYDASILETGVPSRFSGSGSGTHFTFTISSLQPEDMATYYCQQYHHLITFGQGTRLDIKR
Unit Name: µg/mL
Value Measured: 0.76
